tested.on: Human α2δ-1 subunit of Cav2.2 calcium channel (Homo sapiens, UniProt P54289)
Sequence (P54289 25-1103): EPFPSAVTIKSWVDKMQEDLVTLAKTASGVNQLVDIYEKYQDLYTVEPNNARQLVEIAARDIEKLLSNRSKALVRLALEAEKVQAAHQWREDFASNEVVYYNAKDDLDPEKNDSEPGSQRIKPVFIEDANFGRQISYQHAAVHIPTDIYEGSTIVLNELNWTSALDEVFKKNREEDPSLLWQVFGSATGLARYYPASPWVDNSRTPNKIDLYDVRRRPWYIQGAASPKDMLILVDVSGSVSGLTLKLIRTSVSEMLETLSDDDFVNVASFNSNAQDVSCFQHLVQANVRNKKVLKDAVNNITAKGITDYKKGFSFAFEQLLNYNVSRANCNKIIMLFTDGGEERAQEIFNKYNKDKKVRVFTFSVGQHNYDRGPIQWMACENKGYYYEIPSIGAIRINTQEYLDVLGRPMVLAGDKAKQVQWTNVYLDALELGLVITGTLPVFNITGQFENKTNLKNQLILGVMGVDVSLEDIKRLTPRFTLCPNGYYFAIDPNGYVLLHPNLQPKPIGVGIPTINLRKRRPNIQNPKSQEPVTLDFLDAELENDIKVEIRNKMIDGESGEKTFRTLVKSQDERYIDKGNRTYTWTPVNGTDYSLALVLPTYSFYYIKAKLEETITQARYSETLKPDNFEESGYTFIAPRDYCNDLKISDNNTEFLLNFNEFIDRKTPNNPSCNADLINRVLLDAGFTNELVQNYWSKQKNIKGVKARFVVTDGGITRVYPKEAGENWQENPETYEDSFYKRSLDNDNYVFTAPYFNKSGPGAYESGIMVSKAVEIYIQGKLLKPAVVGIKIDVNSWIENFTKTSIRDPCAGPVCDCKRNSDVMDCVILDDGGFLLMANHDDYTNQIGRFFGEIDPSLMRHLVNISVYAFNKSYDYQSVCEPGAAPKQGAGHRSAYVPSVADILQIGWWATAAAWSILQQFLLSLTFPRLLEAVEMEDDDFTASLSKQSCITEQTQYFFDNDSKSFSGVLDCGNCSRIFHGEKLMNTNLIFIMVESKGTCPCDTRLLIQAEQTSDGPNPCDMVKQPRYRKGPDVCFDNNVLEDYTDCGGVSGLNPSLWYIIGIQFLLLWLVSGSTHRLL
assay.comment: biochemical
Assay type: binding
pKi: −log10 of the molar value.
value.type: pKi

- compound: "CCC[C@H](c1nc2nc(C(F)(F)F)ccc2c(=O)n1CC)N1CCN[C@@H](C)C1 [Example 78]"
  value.type: "pKi"
  reported.measurement: "> 6.30"
- compound: "CCC[C@@H](c1nc2cc(O[C@@H](CNC)c3ccccc3)ccc2c(=O)n1C)N1C[C@@H](C)N[C@@H](C)C1 [Example 171]"
  value.type: "pKi"
  reported.measurement: "5.30 to 6.30"
- compound: "CCC[C@H](c1nc2cc(F)c(OC)cc2c(=O)n1CC)N1CCN[C@H](C)C1 [Example 210]"
  value.type: "pKi"
  reported.measurement: "> 6.30"
- compound: "CCC[C@@H](c1nc2nc(C(F)(F)F)ccc2c(=O)n1CC)N1CCN[C@@H](C)C1 [Example 77]"
  value.type: "pKi"
  reported.measurement: "< 5.30"
- compound: "CCC[C@@H](c1nc2ccc(Br)cc2c(=O)n1CC)N1CCN[C@@H](C)C1 [Example 99]"
  value.type: "pKi"
  reported.measurement: "> 6.30"
- compound: "CCC[C@H](c1nc2c(F)cc(F)c(F)c2c(=O)n1CC)N1CCN[C@@H](C)C1 [Example 226]"
  value.type: "pKi"
  reported.measurement: "5.30 to 6.30"
- compound: "CCC[C@H](c1nc2cc(O[C@H](CCNC)c3ccccc3)ccc2c(=O)n1C)N1C[C@@H](C)N[C@@H](C)C1 [Example 165]"
  value.type: "pKi"
  reported.measurement: "5.30 to 6.30"
- compound: "CCC[C@@H](c1nc2cc(O[C@@H](CCNC)c3ccccc3)ccc2c(=O)n1C)N1C[C@@H](C)N[C@@H](C)C1 [Example 166]"
  value.type: "pKi"
  reported.measurement: "> 6.30"
- compound: "CCCC(c1nc2ccc(N3CCC(N(C)C)CC3)cc2c(=O)n1CC)N1C[C@@H](C)N[C@@H](C)C1 (some centres unmarked) [Example 139]"
  value.type: "pKi"
  reported.measurement: "> 6.30"
- compound: "CCCC(c1nc2ccc(N(C)Cc3ccccc3)cc2c(=O)n1CC)N1C[C@@H](C)N[C@@H](C)C1 (some centres unmarked) [Example 144]"
  value.type: "pKi"
  reported.measurement: "> 6.30"
- compound: "CCC[C@H](c1nc2c(F)cc(OC)cc2c(=O)n1CC)N1CCN[C@@H](C)C1 [Example 46]"
  value.type: "pKi"
  reported.measurement: "> 6.30"
- compound: "CCC[C@@H](c1nc2ccc(Cl)cc2c(=O)n1CC)N1CCN[C@@H](C)C1 [Example 104]"
  value.type: "pKi"
  reported.measurement: "< 5.30"
- compound: "CCC[C@@H](c1nc2ccc(Br)cc2c(=O)n1CC)N1CCN[C@H](CF)C1 [Example 57]"
  value.type: "pKi"
  reported.measurement: "> 6.30"
- compound: "CCCC(c1nc2ccc(NCCNC)cc2c(=O)n1CC)N1C[C@@H](C)N[C@@H](C)C1 (some centres unmarked) [Example 145]"
  value.type: "pKi"
  reported.measurement: "> 6.30"
- compound: "CCC[C@H](c1nc2c(F)cc(Cl)cc2c(=O)n1CC)N1CCN[C@@H](C)C1 [Example 217]"
  value.type: "pKi"
  reported.measurement: "> 6.30"
- compound: "CCC[C@@H](c1nc2ccc(Br)cc2c(=O)n1CC)N1CCN[C@H](CO)C1 [Example 59]"
  value.type: "pKi"
  reported.measurement: "< 5.30"
- compound: "CCC[C@H](c1nc2ccc(Cl)cc2c(=O)n1CC)N1CCN[C@@H](C)C1 [Example 103]"
  value.type: "pKi"
  reported.measurement: "> 6.30"
- compound: "CCC[C@H](c1nc2ccc(O)cc2c(=O)n1CC)N1C[C@@H](C)N[C@@H](C)C1 [Example 35]"
  value.type: "pKi"
  reported.measurement: "> 6.30"
- compound: "CCCC(c1nc2cc(NCCNC)ccc2c(=O)n1CC)N1C[C@@H](C)N[C@@H](C)C1 (some centres unmarked) [Example 147]"
  value.type: "pKi"
  reported.measurement: "> 6.30"
- compound: "CCC[C@@H](c1nc2ccc(Br)cc2c(=O)n1C)N1CCN[C@@H](C)C1 [Example 42]"
  value.type: "pKi"
  reported.measurement: "< 5.30"
- compound: "CCC[C@H](c1nc2ccc(Br)cc2c(=O)n1CC)N1CCN[C@H](C)C1 [Example 98]"
  value.type: "pKi"
  reported.measurement: "> 6.30"
- compound: "CCC[C@@H](c1nc2ccc(Br)cc2c(=O)n1CC)N1CCN[C@@H](COC)C1 [Example 220]"
  value.type: "pKi"
  reported.measurement: "< 5.30"
- compound: "CCCC(c1nc2ccc(-c3ccncc3)cc2c(=O)n1CC)N1C[C@@H](C)N[C@@H](C)C1 (some centres unmarked) [Example 132]"
  value.type: "pKi"
  reported.measurement: "> 6.30"
- compound: "CCC[C@H](c1nc2ccc(Br)cc2c(=O)n1CC)N1CCN[C@@H](CO)C1 [Example 60]"
  value.type: "pKi"
  reported.measurement: "> 6.30"
- compound: "CCC[C@H](c1nc2ccc(Br)cc2c(=O)n1CC)N1CCN(C)[C@@H](C)C1 [Example 112]"
  value.type: "pKi"
  reported.measurement: "5.30 to 6.30"
- compound: "CCC[C@H](c1nc2c(F)cc(Br)cc2c(=O)n1CC)N1CCNCC1 [Example 96]"
  value.type: "pKi"
  reported.measurement: "> 6.30"
- compound: "CCC[C@@H](c1nc2ncc(Br)cc2c(=O)n1CC)N1CCN[C@@H](C)C1 [Example 69]"
  value.type: "pKi"
  reported.measurement: "< 5.30"
- compound: "CCC[C@@H](c1nc2ccc(Br)cc2c(=O)n1CC)N1CCN[C@@H](CO)C1 [Example 61]"
  value.type: "pKi"
  reported.measurement: "< 5.30"
- compound: "CCC[C@H](c1nc2ccc(Br)cc2c(=O)n1C)N1CCN[C@@H](C)C1 [Example 41]"
  value.type: "pKi"
  reported.measurement: "> 6.30"
- compound: "CCC[C@@H](c1nc2ccc(Br)cc2c(=O)n1CC)[C@@H]1CCNCC1(F)F [Example 197]"
  value.type: "pKi"
  reported.measurement: "5.30 to 6.30"
- compound: "CCC[C@@H](c1nc2cc(F)c(Br)cc2c(=O)n1CC)N1CCN[C@H](C)C1 [Example 209]"
  value.type: "pKi"
  reported.measurement: "> 6.30"
- compound: "CCCC(c1nc2ccc(Br)c(F)c2c(=O)n1CC)N1C[C@@H](C)N[C@@H](C)C1 (some centres unmarked) [Example 22]"
  value.type: "pKi"
  reported.measurement: "> 6.30"
